B1: DnaJ homolog subfamily C member 5, residues 16 to 77; numbered along this chain, Q9H3Z4 (parent)
chain: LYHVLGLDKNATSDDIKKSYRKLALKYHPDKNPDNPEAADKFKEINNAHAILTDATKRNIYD

Variants of: B1
measurement_notes: abundance fitness (aPCA) (normalised: wild type 0, dead -1); higher = more abundant; growth selection in yeast, the domain comes from the species named
condition_details: Homo sapiens
Give true (1) when the value for abundance fitness is at least -0.2. Give false (0) when it is less.

{"primary_sequence": "LYHVLGLDKNATSDDIKKSYRKLALKYHPDKNPDNPEAADKFKEINNAHAILTDATKVNIYD", "classification": "false (0)"}
{"primary_sequence": "LYHVLGLDKNATSDDIKASYRKLALKYHPDKNPDNPEAADKFKEINNAHAILTDATKRNIYD", "classification": "true (1)"}
{"primary_sequence": "LYHVLGLDKNATSDDIKKSYRKLALKYHPDTNPDNPEAADKFKEINNAHAILTDATKRNIYD", "classification": "true (1)"}
{"primary_sequence": "LYHVLGLDKNATSDDIKKSYRKLALKYHPDKNPDNPEAADKFKEINNAHAICTDATKRNIYD", "classification": "false (0)"}
{"primary_sequence": "LYHVLGLDKNATSDDIKKSYRKLALKYHPDKNPDNPEAANKFKEINNAHAILTDATKRNIYD", "classification": "false (0)"}

Confirm if abundance fitness reported for the variant LYHVLGLDKNATSDDIKKSYRKLALKYHPDKNPDNPEAADKFKEINNAHAILTDQTKRNIYD is -0.2 or above.
true (1)

Confirm if abundance fitness reported for the variant LYHVLGLDKNATSDDIKKSYRKLALKYHPDKVPDNPEAADKFKEINNAHAILTDATKRNIYD is -0.2 or above.
false (0)

Confirm if abundance fitness reported for the variant LYHVLGLDKNATSDDIKKSYRALALKYHPDKNPDNPEAADKFKEINNAHAILTDATKRNIYD is -0.2 or above.
true (1)

Confirm if abundance fitness reported for the variant LYHVLGLDKNATADDIKKSYRKLALKYHPDKNPDNPEAADKFKEINNAHAILTDATKRNIYD is -0.2 or above.
true (1)

Confirm if abundance fitness reported for the variant LYHVLGLDKNAKSDDIKKSYRKLALKYHPDKNPDNPEAADKFKEINNAHAILTDATKRNIYD is -0.2 or above.
false (0)

Confirm if abundance fitness reported for the variant LYHVLGLDKEATSDDIKKSYRKLALKYHPDKNPDNPEAADKFKEINNAHAILTDATKRNIYD is -0.2 or above.
false (0)

Confirm if abundance fitness reported for the variant LYHVLGLDKNATSDDIKKSYRKLALKYHPDKNPDNPMAADKFKEINNAHAILTDATKRNIYD is -0.2 or above.
false (0)

Confirm if abundance fitness reported for the variant LYHVLGLDKNATSDDIKKSYRKHALKYHPDKNPDNPEAADKFKEINNAHAILTDATKRNIYD is -0.2 or above.
false (0)

Confirm if abundance fitness reported for the variant LYHVHGLDKNATSDDIKKSYRKLALKYHPDKNPDNPEAADKFKEINNAHAILTDATKRNIYD is -0.2 or above.
true (1)

Confirm if abundance fitness reported for the variant LYHVLGLDKNATSDDIKKSYRKLAQKYHPDKNPDNPEAADKFKEINNAHAILTDATKRNIYD is -0.2 or above.
true (1)

Confirm if abundance fitness reported for the variant LYHVLGLDKNATSDDIKKSYRKLALKYHPVKNPDNPEAADKFKEINNAHAILTDATKRNIYD is -0.2 or above.
false (0)

Confirm if abundance fitness reported for the variant LYHVLGLDKNATSGDIKKSYRKLALKYHPDKNPDNPEAADKFKEINNAHAILTDATKRNIYD is -0.2 or above.
false (0)
